In this section we review reported MFI at 60 nM values for a set of binders.
Target: T1, Human CD33 full length (human, UniProt P20138 18-364)
T1 construct: also called huCD33
T1 sequence (P20138 18-364 limits assumed): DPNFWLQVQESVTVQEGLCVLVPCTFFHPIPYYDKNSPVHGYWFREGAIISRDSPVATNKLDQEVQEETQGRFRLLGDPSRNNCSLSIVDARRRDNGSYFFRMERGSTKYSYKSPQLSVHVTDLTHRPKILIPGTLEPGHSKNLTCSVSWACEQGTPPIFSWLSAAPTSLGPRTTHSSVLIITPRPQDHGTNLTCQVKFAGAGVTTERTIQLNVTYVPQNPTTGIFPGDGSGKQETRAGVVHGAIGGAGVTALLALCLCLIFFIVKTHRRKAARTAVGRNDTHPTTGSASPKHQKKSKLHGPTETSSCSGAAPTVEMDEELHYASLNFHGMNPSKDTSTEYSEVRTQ
Experiment: flow cytometry on HEK293F cells expressing human CD33
Remember to put the unit after the number in your answer.

[[record]]
binder = "C33B916 (antibody, V domains shown, OMNIMouse-derived anti-CD33 mAb; same V regions as C33B908; also called C33H256/C33L122; C33F554) VH: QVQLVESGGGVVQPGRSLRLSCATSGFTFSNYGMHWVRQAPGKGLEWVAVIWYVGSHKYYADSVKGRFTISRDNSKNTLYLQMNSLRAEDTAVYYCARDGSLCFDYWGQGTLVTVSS VL: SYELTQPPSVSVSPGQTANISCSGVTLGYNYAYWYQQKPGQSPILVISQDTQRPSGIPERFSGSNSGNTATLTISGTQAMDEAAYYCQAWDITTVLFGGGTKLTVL"
measured_property = "MFI at 60 nM"
recorded_value = "448000 MFI"

[[record]]
binder = "C33B915 (antibody, V domains shown, OMNIMouse-derived anti-CD33 mAb; same V regions as C33B907; also called C33H255/C33L121; C33F553) VH: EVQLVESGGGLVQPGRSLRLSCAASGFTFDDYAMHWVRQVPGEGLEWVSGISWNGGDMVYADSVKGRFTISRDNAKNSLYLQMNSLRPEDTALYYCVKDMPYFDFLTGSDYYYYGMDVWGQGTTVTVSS VL: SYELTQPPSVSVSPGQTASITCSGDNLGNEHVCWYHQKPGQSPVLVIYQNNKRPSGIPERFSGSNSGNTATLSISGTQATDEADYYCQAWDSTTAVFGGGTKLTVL"
measured_property = "MFI at 60 nM"
recorded_value = "390000 MFI"


Query :: # query: MFI at 60 nM of entry C33B914 (antibody, V domains shown, OMNIMouse-derived anti-CD33 mAb; same V regions as C33B906; also called C33H254/C33L120; C33F552) VH: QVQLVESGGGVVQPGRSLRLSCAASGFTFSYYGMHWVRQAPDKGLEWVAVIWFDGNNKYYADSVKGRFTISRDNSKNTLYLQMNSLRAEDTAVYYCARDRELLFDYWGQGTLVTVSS VL: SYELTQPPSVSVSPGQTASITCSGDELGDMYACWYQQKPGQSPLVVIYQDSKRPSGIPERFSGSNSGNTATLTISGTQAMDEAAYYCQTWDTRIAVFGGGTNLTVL
Result :: 304000 MFI
